- experimental system: tetanus neurotoxin (TeNT), authentic tetanus holotoxin (Clostridium tetani, UniProt P04958 2-1315)
- Sequence (P04958 2-457 limits assumed, chain 1 of 2): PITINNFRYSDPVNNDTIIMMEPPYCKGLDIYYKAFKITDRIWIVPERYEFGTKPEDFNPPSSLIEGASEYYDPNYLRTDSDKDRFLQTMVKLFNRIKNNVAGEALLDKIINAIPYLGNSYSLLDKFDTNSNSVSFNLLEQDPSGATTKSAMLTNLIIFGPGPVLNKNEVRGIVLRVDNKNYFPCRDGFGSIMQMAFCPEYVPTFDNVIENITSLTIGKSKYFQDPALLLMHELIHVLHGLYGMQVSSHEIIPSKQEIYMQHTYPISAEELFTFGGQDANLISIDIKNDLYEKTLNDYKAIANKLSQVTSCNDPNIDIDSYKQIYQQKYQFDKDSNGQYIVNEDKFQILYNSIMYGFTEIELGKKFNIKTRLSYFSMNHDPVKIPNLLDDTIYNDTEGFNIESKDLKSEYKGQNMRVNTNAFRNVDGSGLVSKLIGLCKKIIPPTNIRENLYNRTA
- Sequence (P04958 458-1315 limits assumed, chain 2 of 2): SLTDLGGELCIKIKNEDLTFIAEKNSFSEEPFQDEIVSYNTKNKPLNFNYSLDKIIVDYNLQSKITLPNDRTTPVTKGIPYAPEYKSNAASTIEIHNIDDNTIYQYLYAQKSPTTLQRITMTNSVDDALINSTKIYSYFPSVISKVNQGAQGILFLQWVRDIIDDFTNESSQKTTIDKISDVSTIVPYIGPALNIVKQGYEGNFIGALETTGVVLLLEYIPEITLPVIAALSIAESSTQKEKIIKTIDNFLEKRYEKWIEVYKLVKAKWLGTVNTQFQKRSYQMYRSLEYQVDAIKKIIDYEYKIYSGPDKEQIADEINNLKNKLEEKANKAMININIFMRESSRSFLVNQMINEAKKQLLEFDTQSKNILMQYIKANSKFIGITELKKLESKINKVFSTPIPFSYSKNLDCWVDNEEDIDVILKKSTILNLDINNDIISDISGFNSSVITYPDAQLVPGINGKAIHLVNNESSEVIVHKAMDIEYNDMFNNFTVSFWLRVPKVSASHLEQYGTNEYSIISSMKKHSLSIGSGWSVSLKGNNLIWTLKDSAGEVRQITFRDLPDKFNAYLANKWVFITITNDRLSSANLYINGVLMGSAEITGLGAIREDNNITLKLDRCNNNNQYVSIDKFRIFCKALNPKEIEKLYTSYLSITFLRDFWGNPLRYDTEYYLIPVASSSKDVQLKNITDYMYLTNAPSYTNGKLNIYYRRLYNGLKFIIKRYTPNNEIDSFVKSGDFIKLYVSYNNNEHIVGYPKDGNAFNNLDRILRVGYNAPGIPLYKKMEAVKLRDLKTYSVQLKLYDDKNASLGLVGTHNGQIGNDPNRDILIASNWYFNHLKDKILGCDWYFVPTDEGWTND
- assay overview: ELISA, TeNT captured with cAb-TT2, biotinylated binder
measurement label: EC resulting in A450 0.2

// below: answered binders
binder	EC resulting in A450 0.2
SVT29L (VHH) VHH: QVQLQESGGGLVQTGGSLTLSCRAYGRAFDNYHFGWFRQAPGKDREFVASISWKGGSTYRANFALGRFTSSVNRGESSVYLHMSGLTPEDTATYYCAAHDGGDWNYHTGMDYWGKGILVTVSS	14 ng/mL
SVT16L (VHH) VHH: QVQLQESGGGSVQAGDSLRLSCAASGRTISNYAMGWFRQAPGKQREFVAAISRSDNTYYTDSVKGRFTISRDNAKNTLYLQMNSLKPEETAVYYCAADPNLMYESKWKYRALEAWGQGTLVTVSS	1.6 ng/mL
SVT13L (VHH) VHH: QVQLQESGGGLVQAGGSLRLSCAVSGTNFDDYAIGWFRQAPGKRREAVACISKTDGVTRYGNGVKGRFTISSDEARNTVFLQMNDLKDEDTAIYYCIGDFKSCGMGYKPIDHWGRGIQVTVSS	1.3 ng/mL
SVT06L (VHH) VHH: QVQLQESGGGSVQAGGSLRLSCTASELSYDDYTIAWFRRAAGEGRVEDGEGVASITKSYDRAYDNKINYGHSVKGRFTISRDNAKNTVYLQMTDLLPSDTAVYYCALDITPPGGVGASLTEGFLFDYWGQGTQVTVSS	0.37 ng/mL
SVT22L (VHH) VHH: QVQLQESGGGLVQAGESLRLSCTASGISFDDYAIGWFRQAPGQQRKGVACISKADGRTDYLGSVKGRFTLSTDNTKNTVHLQMNNLKPEDTALYTCAAEYKSCGMGYKPIDYWGQGMQVTVSS	2.6 ng/mL

Can you look up the measured EC resulting in A450 0.2 of SVT31L (VHH) VHH: QVQLQESGGGSVQAGGSLTLSCAASEFSYNDYTIAWFRRAAGKGRVEDGEGVASITKSYDRAYDNRIHYADSVKGRFTISRDNAKNTVYLQMTSLNPSDTAVYYCALDITPPGGIGASLTEGFLFDYWGQGTQVTVSS for me?
1.5 ng/mL

For SVT20L (VHH) VHH: QVQLQQSGGGLVQAGGSLRLSCAASGRTMSSYAMGWFRQAPGKQREFVAAISRSGGNTYYTDSVKGRFTISRDNAKNTLYLQMNSLKPEETAVYYCAADPNLMYESKWKYRALEAWGQGTLVTVSS then?
4.5 ng/mL

Thanks! And SVT05L (VHH) VHH: QVQLQESGGGLVQPGGSLRLSCSASGFSFTDDYGIGWFRSGPGKGREAVAPIADREAVAAIALSDGNTYYSASAKGRFTISRDNAKSTAYLQMNNLKPEDTATYYCAADFWGYGMSWPMATLWEYWGQGIQVTVSS ?
1.7 ng/mL

And the next one, SVT15L-3FW4M (VHH) VHH: QVQLQESGGGLVQTGGSLRLSCRASGRAFANYHFGWFRQAPGKDREFVASISWKGGSTYYANFALGRFTSSVDRAESSVYLQMSGLTPEDTATYYCAAHDGGDWNYHTGMDYWGQGTQVTVSS ?
3.5 ng/mL

Another binder to check: SVT15L (VHH) VHH: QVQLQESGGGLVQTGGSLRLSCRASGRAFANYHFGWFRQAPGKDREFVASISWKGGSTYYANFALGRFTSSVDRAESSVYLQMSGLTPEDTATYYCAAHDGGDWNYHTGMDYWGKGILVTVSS
5.7 ng/mL

What would you report for SVT34L (VHH) VHH: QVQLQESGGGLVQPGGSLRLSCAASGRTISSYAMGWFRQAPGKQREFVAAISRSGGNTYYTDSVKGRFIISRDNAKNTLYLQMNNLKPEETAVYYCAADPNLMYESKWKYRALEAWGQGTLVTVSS ?
3.5 ng/mL
